Reported target mRNA knockdown values for the following substances.
Details: siRNA; also: test system not given here
HELM strings list units from the 5' end as sugar, base in round brackets, then linkage (d deoxyribose, r ribose, m 2'-O-methyl, p phosphodiester). Strings are as the collection lists them, not checked against the first reports. ss, as = sense and antisense strand; [hna] = hexitol nucleic acid; [s4r] = 4'-thioribose; [fl2r] = 2'-fluoro
Respond numerically; units are % and should not be typed.

- substance: "RNA1{[s4r](C)p.[s4r](G)p.r(U)p.r(A)p.r(C)p.r(G)p.r(C)p.r(G)p.r(G)p.r(A)p.r(A)p.r(U)p.r(A)p.r(C)p.r(U)p.r(U)p.r(C)p.r(G)p.r(A)p.r(T)p.r(T)}|RNA2{[s4r](U)p.[s4r](C)p.r(G)p.r(A)p.r(A)p.r(G)p.r(U)p.r(A)p.r(U)p.r(U)p.r(C)p.r(C)p.r(G)p.r(C)p.r(G)p.r(U)p.r(A)p.[s4r](C)p.[s4r](G)p.r(T)p.r(T)}$$$RNA1{StrandType:ss}|RNA2{StrandType:as}$"
  target mRNA knockdown (%): 90.4

What value of target mRNA knockdown has been recorded for this entry: `RNA1{[hna](G)p.[hna](A)p.[hna](C)p.r(G)p.r(U)p.r(A)p.r(A)p.r(A)p.r(C)p.r(G)p.r(G)p.r(C)p.r(C)p.r(A)p.r(C)p.r(A)p.r(A)p.[hna](G)p.[hna](U)p.[hna](U)p.d(T)}|RNA2{r(A)p.[hna](C)p.r(U)p.r(U)p.r(G)p.r(U)p.r(G)p.r(G)p.r(C)p.r(C)p.r(G)p.r(U)p.r(U)p.r(U)p.r(A)p.r(C)p.r(G)p.[hna](U)p.[hna](C)p.[hna](G)p.d(T)}$$$RNA1{StrandType:ss}|RNA2{StrandType:as}$`
77.4

Quick one: target mRNA knockdown for `RNA1{m(G)p.r(U)p.m(A)p.r(C)p.m(U)p.r(C)p.m(U)p.r(G)p.m(A)p.r(U)p.m(G)p.r(A)p.m(G)p.r(G)p.m(A)p.r(A)p.m(G)p.r(A)p.m(G)p.r(T)p.r(T)}|RNA2{r(C)p.r(U)p.r(C)p.r(U)p.r(U)p.r(C)p.r(C)p.r(U)p.r(C)p.r(A)p.r(U)p.r(C)p.r(A)p.r(G)p.r(A)p.r(G)p.r(U)p.r(A)p.r(C)p.r(T)p.r(T)}$$$RNA1{StrandType:ss}|RNA2{StrandType:as}$` ?
18

Returns the measured target mRNA knockdown for the input substance. Input: `RNA1{r(G)p.r(C)p.r(A)p.r(G)p.r(C)p.r(A)p.r(C)p.r(G)p.r(A)p.r(C)p.r(U)p.r(U)p.r(C)p.r(U)p.r(U)p.r(C)p.r(A)p.r(A)p.r(G)p.r(T)p.r(T)}|RNA2{[fl2r](C)p.[fl2r](U)p.[fl2r](U)p.r(G)p.r(A)p.r(A)p.r(G)p.r(A)p.r(A)p.r(G)p.[fl2r](U)p.[fl2r](C)p.r(G)p.[fl2r](U)p.r(G)p.[fl2r](C)p.[fl2r](U)p.r(G)p.[fl2r](C)p.r(T)p.r(T)}$$$RNA1{StrandType:ss}|RNA2{StrandType:as}$`
83

Reported target mRNA knockdown, substance `RNA1{r(G)p.r(U)p.r(A)p.r(U)p.r(C)p.r(C)p.r(G)p.r(A)p.r(A)p.r(G)p.r(A)p.r(C)p.r(G)p.r(A)p.r(A)p.r(G)p.r(C)p.m(U)p.r(A)p.r(T)p.r(T)}|RNA2{m(U)p.r(A)p.r(G)p.r(C)p.r(U)p.r(U)p.r(C)p.r(G)p.r(U)p.r(C)p.r(U)p.r(U)p.r(C)p.r(G)p.r(G)p.r(A)p.m(U)p.r(A)p.r(C)p.r(T)p.r(T)}$$$RNA1{StrandType:ss}|RNA2{StrandType:as}$` : ____
95

====

Settings: siRNA
HELM strings list units from the 5' end as sugar, base in round brackets, then linkage (d deoxyribose, r ribose, m 2'-O-methyl, p phosphodiester). Strings are as the collection lists them, not checked against the first reports. ss, as = sense and antisense strand; [una] = unlocked nucleic acid; [s4r] = 4'-thioribose; [fl2r] = 2'-fluoro
observable: target mRNA knockdown (%)
Your answer should be a plain number; it is taken to be in %.

- substance: "RNA1{r(A)p.r(A)p.r(G)p.r(G)p.r(A)p.r(A)p.r(C)p.r(G)p.r(G)p.r(G)p.r(G)p.r(A)p.m(C)p.r(A)p.r(C)p.r(U)p.m(U)p.r(A)p.r(C)p.r(T)p.r(T)}|RNA2{r(G)p.m(U)p.r(A)p.r(A)p.r(G)p.m(U)p.r(G)p.r(U)p.r(C)p.r(C)p.r(C)p.r(C)p.r(G)p.r(U)p.r(U)p.r(C)p.r(C)p.r(U)p.r(U)p.r(T)p.r(T)}$$$RNA1{StrandType:ss}|RNA2{StrandType:as}$"
  scale-unit: "%"
  value: 35
- substance: "RNA1{r(U)p.r(C)p.r(C)p.r(U)p.r(A)p.r(C)p.r(A)p.r(G)p.r(C)p.r(A)p.r(C)p.r(A)p.r(A)p.r(C)p.r(A)p.r(A)p.r(A)p.r(U)p.r(G)p.d(U)p.d(G)}|RNA2{r(C)p.r(A)p.r(U)p.r(U)p.r(U)p.r(G)p.r(U)p.r(U)p.r(G)p.r(U)p.r(G)p.r(C)p.r(U)p.r(G)p.r(U)p.r(A)p.r(G)p.r(G)p.r(A)p.d(T)p.d(T)}$$$RNA1{StrandType:ss}|RNA2{StrandType:as}$"
  scale-unit: "%"
  value: 54
- substance: "RNA1{r(G)p.r(U)p.r(A)p.r(U)p.r(G)p.r(A)p.r(C)p.r(C)p.r(G)p.r(A)p.r(C)p.r(U)p.r(A)p.r(C)p.r(G)p.r(C)p.r(G)p.r(U)p.r(A)p.r(T)p.r(T)}|RNA2{r(U)p.r(U)p.r(C)p.r(A)p.r(G)p.r(U)p.r(G)p.r(U)p.r(G)p.r(A)p.r(U)p.r(G)p.r(A)p.r(C)p.r(A)p.[una](C)p.r(U)p.r(U)p.r(G)p.r(T)p.r(T)}$$$RNA1{StrandType:ss}|RNA2{StrandType:as}$"
  scale-unit: "%"
  value: 29

Sample `RNA1{m(A)p.r(A)p.m(G)p.r(G)p.m(A)p.r(G)p.m(A)p.r(U)p.m(C)p.r(A)p.m(A)p.r(C)p.m(A)p.r(U)p.m(U)p.r(U)p.m(U)p.r(C)p.m(A)p.r(T)p.r(T)}|RNA2{r(U)p.m(G)p.r(A)p.m(A)p.r(A)p.m(A)p.r(U)p.m(G)p.r(U)p.m(U)p.r(G)p.m(A)p.r(U)p.m(C)p.r(U)p.m(C)p.r(C)p.m(U)p.r(U)p.r(T)p.r(T)}$$$RNA1{StrandType:ss}|RNA2{StrandType:as}$` — what was its target mRNA knockdown?
65

Consider the substance shown here: `RNA1{r(A)p.r(C)p.r(C)p.r(U)p.[fl2r](U)p.r(A)p.r(A)p.r(G)p.r(G)p.r(A)p.r(C)p.[fl2r](C)p.[fl2r](A)p.r(C)p.r(C)p.r(G)p.r(G)p.r(A)p.r(U)p.r(T)p.r(T)}|RNA2{r(A)p.r(U)p.r(C)p.r(C)p.r(G)p.r(G)p.[fl2r](U)p.[fl2r](G)p.r(G)p.r(U)p.r(C)p.r(C)p.r(U)p.[fl2r](U)p.[fl2r](A)p.r(A)p.r(G)p.r(G)p.r(U)p.r(T)p.r(T)}$$$RNA1{StrandType:ss}|RNA2{StrandType:as}$` What is its recorded target mRNA knockdown?
70

What does the record list as target mRNA knockdown for `RNA1{[s4r](A)p.[s4r](A)p.r(A)p.r(C)p.r(A)p.r(U)p.r(G)p.r(C)p.r(A)p.r(G)p.r(A)p.r(A)p.r(A)p.r(A)p.r(U)p.r(G)p.r(C)p.r(U)p.r(G)p.r(T)p.r(T)}|RNA2{r(C)p.r(A)p.r(G)p.r(C)p.r(A)p.r(U)p.r(U)p.r(U)p.r(U)p.r(C)p.r(U)p.r(G)p.r(C)p.r(A)p.r(U)p.[s4r](G)p.[s4r](U)p.[s4r](U)p.[s4r](U)p.r(T)p.r(T)}$$$RNA1{StrandType:ss}|RNA2{StrandType:as}$` ?
70.9

====

In this section, each of the substances is paired with its reported target mRNA knockdown.
Conditions: siRNA
HELM strings list units from the 5' end as sugar, base in round brackets, then linkage (d deoxyribose, r ribose, m 2'-O-methyl, p phosphodiester). Strings are as the collection lists them, not checked against the first reports. ss, as = sense and antisense strand; [fl2r] = 2'-fluoro
Dear colleague, please return just the value in %, with no unit written.

- substance: "RNA1{r(A)p.r(G)p.r(A)p.r(G)p.r(A)p.r(A)p.r(G)p.r(G)p.r(G)p.r(C)p.r(G)p.r(U)p.r(C)p.r(U)p.r(C)p.r(U)p.[fl2r](A)p.r(C)p.r(A)p.r(T)p.r(T)}|RNA2{r(U)p.r(G)p.[fl2r](U)p.r(A)p.r(G)p.r(A)p.r(G)p.r(A)p.r(C)p.r(G)p.r(C)p.r(C)p.r(C)p.r(U)p.r(U)p.r(C)p.r(U)p.r(C)p.r(U)p.r(T)p.r(T)}$$$RNA1{StrandType:ss}|RNA2{StrandType:as}$"
  scale-unit: "%"
  target mRNA knockdown: 69

Next substance, target mRNA knockdown to be filled in.
Value lookup for target mRNA knockdown; key = `RNA1{r(U)p.r(C)p.r(C)p.r(A)p.r(A)p.r(G)p.r(C)p.r(U)p.r(U)p.r(C)p.r(C)p.r(U)p.r(C)p.r(G)p.r(U)p.r(U)p.r(G)p.r(G)p.r(U)p.r(T)p.r(T)}|RNA2{r(A)p.r(C)p.[fl2r](C)p.r(A)p.r(A)p.r(C)p.r(G)p.r(A)p.r(G)p.r(G)p.r(A)p.r(A)p.r(G)p.r(C)p.r(U)p.[fl2r](U)p.r(G)p.r(G)p.r(A)p.r(T)p.r(T)}$$$RNA1{StrandType:ss}|RNA2{StrandType:as}$`
71
